Measured Kd accompanies every entry in the list below.
- Target or test system: T1, EsCas13d, nuclease-dead (Eubacterium siraeum, UniProt B0MS50, R295A;H300A;R849A;H854A)
- T1 sequence: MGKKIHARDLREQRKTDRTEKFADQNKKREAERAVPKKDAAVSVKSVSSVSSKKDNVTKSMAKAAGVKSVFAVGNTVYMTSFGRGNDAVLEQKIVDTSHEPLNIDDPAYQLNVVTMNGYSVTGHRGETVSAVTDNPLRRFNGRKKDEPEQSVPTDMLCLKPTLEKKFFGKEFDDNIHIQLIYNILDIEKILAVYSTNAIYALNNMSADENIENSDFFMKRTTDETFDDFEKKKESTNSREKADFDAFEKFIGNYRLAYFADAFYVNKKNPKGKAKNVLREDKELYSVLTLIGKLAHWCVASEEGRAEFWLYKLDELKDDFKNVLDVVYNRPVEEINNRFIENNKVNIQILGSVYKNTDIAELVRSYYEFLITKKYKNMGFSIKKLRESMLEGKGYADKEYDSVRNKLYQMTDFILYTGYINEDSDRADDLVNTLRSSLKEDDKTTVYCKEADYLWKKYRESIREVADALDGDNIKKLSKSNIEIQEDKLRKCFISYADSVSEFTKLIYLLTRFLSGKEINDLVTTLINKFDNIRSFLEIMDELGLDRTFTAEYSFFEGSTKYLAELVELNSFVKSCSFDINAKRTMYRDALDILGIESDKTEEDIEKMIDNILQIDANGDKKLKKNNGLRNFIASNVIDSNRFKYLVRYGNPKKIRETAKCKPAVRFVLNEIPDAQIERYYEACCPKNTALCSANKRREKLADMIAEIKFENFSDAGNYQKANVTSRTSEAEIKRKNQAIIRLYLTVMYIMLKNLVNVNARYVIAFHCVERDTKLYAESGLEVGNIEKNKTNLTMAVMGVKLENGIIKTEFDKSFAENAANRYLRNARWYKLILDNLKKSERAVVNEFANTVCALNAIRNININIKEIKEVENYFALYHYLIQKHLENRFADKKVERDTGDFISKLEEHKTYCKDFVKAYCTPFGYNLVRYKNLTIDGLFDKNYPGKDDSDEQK
- Protocol description: crRNA (strand 1, pre-loaded); Mg2+; 40 mM Tris-HCl pH 7.5, 150 mM NaCl, 6 mM MgCl2, 1 mM DTT, 0.1% Tween-20, 0.2 mg/ml BSA; 25 C; 10 min per concentration, then washed
- Applied conditions: tags: His6-TwinStrep-SUMO cleaved; N-terminal SNAP kept (SNAP-Surface 488); label: 3' end held by stalled T7 RNA polymerase
Give your result as the value with the unit written after it.

Solved entries:
[[record]]
binder = "target 2 MT 5'PFS CGG 3'PFS AAA (mixed) RNA 1: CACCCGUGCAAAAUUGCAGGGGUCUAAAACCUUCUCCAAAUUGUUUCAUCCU RNA 2: GGGAAUGGAUCCACAUCUACGAAUUCCGGAGGAUGAAACAAUUUGGAGAAGAAAAGAUCGGAAGAGCACACGU"
observed_result = "5.7 nM"

[[record]]
binder = "target 3 insG 3' of 9,insU 3' of 4 (mixed) RNA 1: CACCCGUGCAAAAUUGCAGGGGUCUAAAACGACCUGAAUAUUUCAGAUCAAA RNA 2: GGGAAUGGAUCCACAUCUACGAAUUCGUUUUUGAUCUGAAAUAGUUCAGUGUCUGCAGAUCGGAAGAGCACACGU"
observed_result = "74.5 nM"

[[record]]
binder = "target 2 MT 5'PFS CGG 3'PFS UUG (mixed) RNA 1: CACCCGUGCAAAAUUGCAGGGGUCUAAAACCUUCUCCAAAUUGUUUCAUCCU RNA 2: GGGAAUGGAUCCACAUCUACGAAUUCCGGAGGAUGAAACAAUUUGGAGAAGUUGAGAUCGGAAGAGCACACGU"
observed_result = "6.5 nM"


binder target 1 MT 5'PFS AGG 3'PFS UAC (mixed) RNA 1: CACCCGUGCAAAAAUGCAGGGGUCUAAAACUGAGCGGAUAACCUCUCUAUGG RNA 2: GGGAAUGGAUCCACAUCUACGAAUUCAGGCCAUAGAGAGGUUAUCCGCUCAUACAGAUCGGAAGAGCACACGU , Kd observed: 32 nM

The reported Kd of the binder target 1 del9,del11 (mixed) RNA 1: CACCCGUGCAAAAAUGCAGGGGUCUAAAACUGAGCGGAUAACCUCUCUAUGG RNA 2: GGGAAUGGAUCCACAUCUACGAAUUCGUACCAUAGAGAGGUUCCGCUCACCGAGAUCGGAAGAGCACACGU was 13.2 nM

Memo: target 1 MT 5'PFS UCG 3'PFS CUG (mixed) RNA 1: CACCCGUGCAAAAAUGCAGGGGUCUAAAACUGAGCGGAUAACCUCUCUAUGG RNA 2: GGGAAUGGAUCCACAUCUACGAAUUCUCGCCAUAGAGAGGUUAUCCGCUCACUGAGAUCGGAAGAGCACACGU , reported Kd: 57.5 nM

Kd in this record for target 2 MT 5'PFS UGA 3'PFS AAA (mixed) RNA 1: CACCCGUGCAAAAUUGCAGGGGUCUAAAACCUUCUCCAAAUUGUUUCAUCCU RNA 2: GGGAAUGGAUCCACAUCUACGAAUUCUGAAGGAUGAAACAAUUUGGAGAAGAAAAGAUCGGAAGAGCACACGU : 9 nM

// Kd lookup, binder = target 1 MT 5'PFS GAA 3'PFS UAU (mixed) RNA 1: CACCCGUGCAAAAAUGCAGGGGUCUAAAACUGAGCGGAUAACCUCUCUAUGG RNA 2: GGGAAUGGAUCCACAUCUACGAAUUCGAACCAUAGAGAGGUUAUCCGCUCAUAUAGAUCGGAAGAGCACACGU , result: 27.5 nM
